tested on: TK-10; assay: NCI tumour cell line growth inhibition, 48 h
Counter-ions that a name gives are not always drawn. Activity calls are given as the source filed them. No stated cut-off is given here; in the data, active = GI50 up to about 1.1 µM and inactive = higher.
ASSAY_METRIC: GI50

Below are 4 molecules. Give each one its GI50.
1. OCC1OC(n2cnc3cccnc32)CC1O (centres undefined)
2. NC(=O)c1nnc2cc(F)ccc2c1N
3. COC(=O)c1ccccc1Nc1ccccc1C(=O)OC
4. CN1CC2=C(N=C(S)NC2c2ccccc2)/C(=C/c2ccccc2)C1 (centres undefined)

["> 100 µM (inactive)", "76.2 µM (inactive)", "41.2 µM (inactive)", "26 µM (inactive)"]

Below are 7 molecules. Give each one its GI50.
1. O=c1cc(NNc2cccc(F)c2)[nH]c(=S)[nH]1
2. FC(F)(F)c1n[nH]c(SCc2ccc(Cl)cc2)n1
3. C=C(Br)C(C)(Cl)CCC(Br)C(C)(C)Br (centres undefined)
4. O=C(CC1C=Cc2ccccc2N1C(=O)c1ccccc1)c1ccccc1 (centres undefined)
5. COC(=O)C1(Cc2ccc3c(c2)CCC3)Cc2ccc3c(c2C1=O)CCC3 (centres undefined)
6. C=C1C(=O)OC2CC(=C)C3CC=C(C)C3CC12 (centres undefined)
7. CCN(CC)CCNc1ccc(CO)c2sc3ccccc3c(=O)c12 [HYCANTHONE MESYLATE]

> 100 µM (inactive)
> 100 µM (inactive)
> 100 µM (inactive)
36.3 µM (inactive)
11.8 µM (inactive)
18 µM (inactive)
12.1 µM (inactive)
